Recorded values, source the supplement of paper PMC7724964.

# maps each entry to its phage ELISA signal ratio
- target_system: T1, SPSB2 26-221 SPRY (domain begin residue: 26, domain end residue: 221), Q99619
- T1 chain: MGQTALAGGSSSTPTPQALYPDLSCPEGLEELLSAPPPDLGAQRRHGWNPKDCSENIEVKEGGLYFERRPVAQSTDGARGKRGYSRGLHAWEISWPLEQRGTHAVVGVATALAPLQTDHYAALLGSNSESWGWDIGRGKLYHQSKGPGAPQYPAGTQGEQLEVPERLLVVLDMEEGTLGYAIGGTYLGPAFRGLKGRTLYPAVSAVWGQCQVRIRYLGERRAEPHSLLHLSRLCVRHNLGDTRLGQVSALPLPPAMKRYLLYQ
- assay_procedure: phage ELISA signal ratio (GST-PRM binding over GST background); higher = stronger binding of peptide-phage to the PRM
Provide a numeric answer; units are not to be included.

// worked examples, phage ELISA signal ratio included
input: phage ELISA signal ratio for IVDTYWAMENNNVGTV ?
output: 29.6

input: phage ELISA signal ratio for MVDLNGNTYSESMVAV ?
output: 33.8

Moving on to the next binder.
input: phage ELISA signal ratio for EVMYDWNGNASSLLMM ?
output: 35.3
